Origin of the recorded values: PubChem BioAssay (NCI)

Test system: T-47D breast
experiment-summary: NCI-60 one-dose screen, 48 h
condition-context: 10 µM unless noted
About 83,000 compounds went through this panel and 20% of them were active in at least one assay; those are over-represented in the sample as a whole. The source made the active and inactive calls. How the source made its calls: active means growth percent below 10; inactive means the rest.
Give one outcome, nothing more. List: 1 (yes) for active, 0 (no) for inactive

Asked: Which outcome was entered for the molecule N=C(N)c1ccc(S(N)(=O)=O)cc1 in this test?
Given back: 0 (no)

Asked: Next molecule up: Cc1ccc(-c2nc([P+](c3ccccc3)(c3ccccc3)c3ccccc3)c(N3CCOCC3)o2)cc1
Given back: 1 (yes)

Asked: Next molecule up: C#CCn1c2c(c3ccccc31)C[C@]1(C)[C@H]3CC[C@@H]4[C@@H]5C(=CCC[C@H]5C(=C)C)CC[C@@]4(C)[C@]3(C)CC[C@H]1C2(C)C
Given back: 0 (no)

Asked: Next molecule up: COc1ccc(-c2cc(-c3cccs3)n(N=O)c(=O)c2C#N)cc1
Given back: 0 (no)

Asked: Next molecule up: CNC(=O)c1cc(Oc2ccc3nc(NC(=O)Nc4ccc(Cl)cc4)sc3c2)ccn1
Given back: 0 (no)

Asked: Next molecule up: COc1ccc2c(c1)C(Br)=C(CCO)C2c1ccccc1 (centres undefined)
Given back: 0 (no)

Asked: Next molecule up: O=C(CCCCCn1c2ccccc2c2c3c(c4c5ccccc5[nH]c4c21)C(=O)N(O)C3=O)N1CCOCC1
Given back: 0 (no)

Asked: Next molecule up: O=C(NC(Cc1cn(Cc2ccccc2)cn1)C(=O)O)OCC1c2ccccc2-c2ccccc21 (centres undefined)
Given back: 0 (no)

Asked: Next molecule up: CCCCCC1CCCCN1C(=O)OCC (centres undefined)
Given back: 0 (no)

Asked: Next molecule up: O=c1[nH]c(=S)[nH]c2nc[nH]c12
Given back: 0 (no)

Asked: Next molecule up: COCCNC1=C(Cl)C(=O)c2ccccc2C1=O
Given back: 0 (no)

Asked: Next molecule up: COc1ccc2c3c(c4ccccc4cc13)C(=O)N(CCN(C)CCN)C2=O
Given back: 1 (yes)

Asked: Next molecule up: NC(N)=N/N=C/c1ccc(-c2ccc(-c3ccc(Cl)cn3)s2)cc1
Given back: 0 (no)

Asked: Next molecule up: Oc1ccc(CCC2CCCC(CCc3ccc(OCCF)cc3)N2)cc1 (centres undefined)
Given back: 0 (no)

Asked: Next molecule up: COc1cnc2c(c1)C(=O)c1c-2n(CCCNC2=NCCS2)c(=O)c2cc([N+](=O)[O-])ccc12
Given back: 0 (no)

Asked: Next molecule up: O=C1CCCC=CC[C@H]2C=C(Cl)C(=O)C2=CC[C@H](CCCCC(F)(F)F)OC(=O)CCCC=CC[C@H]2C=C(Cl)C(=O)C2=CC[C@H](CCCCC(F)(F)F)OC(=O)CCCC=CC[C@H]2C=C(Cl)C(=O)C2=CC[C@H](CCCCC(F)(F)F)O1
Given back: 0 (no)

Asked: Next molecule up: CCSc1sc(-c2ccc(C)cc2)nc1[P+](c1ccccc1)(c1ccccc1)c1ccccc1
Given back: 1 (yes)

Asked: Next molecule up: CC1=NN(c2ccc(S(=O)(=O)O)cc2Cl)C(=O)C1
Given back: 0 (no)

Asked: Next molecule up: N#C/C(=C\c1ccc(-c2ccc(Br)cc2)o1)c1nc(-c2ccco2)cs1
Given back: 1 (yes)

###

Hi there, I'd appreciate the recorded growth for every entry that follows.
Tested on: U251 CNS
experiment-summary: NCI-60 one-dose screen, 48 h (100 = growth as untreated, 0 = no growth, -100 = all killed)
condition-context: 10 µM unless noted
Description: Growth inhibition of the U251 human tumor cell line is measured as a screen for anti-cancer activity. Cells are grown in 96 well plates and exposed to the test compound for 48 hours. Compounds are tested at a single concentration, which is 10^-5 M for most compounds. The reported endpoint is percent growth (GI% or GIPRCNT), where numbers from 0 - 100% represent growth inhibition, and numbers from -100% - 0 represent cell death. For example, a value of 40 represents 60% growth inhibition. […]
About 83,000 compounds went through this panel and 20% of them were active in at least one assay; those are over-represented in the sample as a whole.
Give a bare numeral; the unit % is implied.

Asked: growth of O=[N+]([O-])c1ccc(N/N=C(\C(=N/Nc2ccc([N+](=O)[O-])cc2[N+](=O)[O-])c2ccccc2)c2ccccc2)c([N+](=O)[O-])c1 on U251 CNS?
Given back: 36.4

Asked: Next molecule up: O=[N+]([O-])c1cccc(/C=N\Nc2ccccc2)c1
Given back: 83.4

Asked: Next molecule up: COc1cnc2c(c1)C(=O)c1c-2n(CCCNC2=NCCS2)c(=O)c2cc([N+](=O)[O-])ccc12
Given back: -83.9

Asked: Next molecule up: Cc1nc([P+](c2ccccc2)(c2ccccc2)c2ccccc2)c(Sc2sc(-c3ccccc3)nc2[P+](c2ccccc2)(c2ccccc2)c2ccccc2)o1
Given back: 14.3

Asked: Next molecule up: CCN(CC)C(=O)CCCCCn1c2ccccc2c2c3c(c4c5ccccc5[nH]c4c21)C(=O)N(O)C3=O
Given back: 10.5

Asked: Next molecule up: CC(=O)Nc1cc(F)cc(C(F)(F)F)c1Cl
Given back: 105

Asked: Next molecule up: CCOc1ccc(NC(=O)c2ccoc2COc2ccccc2)cc1
Given back: 99.4

Asked: Next molecule up: COc1ccc(C2NC(=O)Nc3ccccc32)c(OC)c1 (stereo not given)
Given back: 99.7

Asked: Next molecule up: Brc1ccc2[nH]cc(-c3nc(-c4c[nH]c5ncccc45)cs3)c2c1
Given back: 27.7

Asked: Next molecule up: COC(=O)CCCCCn1c2ccccc2c2c3c(c4c5ccccc5[nH]c4c21)C(=O)N(O)C3=O
Given back: 10.2

Asked: Next molecule up: Cc1csc(Nc2nc(-c3cccc(Br)c3)nc(C(Cl)(Cl)Cl)n2)n1
Given back: 35.8

Asked: Next molecule up: CC(c1ccccc1)N1C(=O)C(C2SC(=S)N(C(C)c3ccccc3)C2=O)SC1=S (stereo not given)
Given back: 85

Asked: Next molecule up: Nc1c(C(=O)Nc2c(Cl)cccc2Cl)sc2nc3c(cc12)C(=O)CCC3
Given back: 26.4

Asked: Next molecule up: CC(=O)c1c(C)[nH]c(-c2nc3ccc(N4CCN(C)CC4)cc3[nH]2)c1-c1ccc2c(c1)OCCO2
Given back: 57.2

Asked: Next molecule up: C=C(C)[C@@H]1CC[C@]2(C(=O)O)CC[C@]3(C)[C@H](CC[C@@H]4[C@@]5(C)C/C(=C/c6cccc(I)c6)C(=O)C(C)(C)[C@@H]5CC[C@]43C)[C@@H]12
Given back: 18.4

Asked: Next molecule up: COc1cc2nc(Cl)nc(Nc3cccc(C(=O)/C=C/c4ccc(Cl)cc4)c3)c2cc1OC
Given back: 50.7

Asked: Next molecule up: Cc1ccc(-c2ccc(Nc3ccccc3)nn2)cc1S(N)(=O)=O
Given back: 93.7

Asked: Next molecule up: Cc1cc(N(CCCNc2ccnc3cc(Cl)ccc23)Cc2ccco2)nc(N2CCN(C)CC2)n1
Given back: 28.6

Asked: Next molecule up: N#CC1=C(N)Oc2c(c(N)nn2-c2ccccc2)C1c1ccc(Cl)cc1 (stereo not given)
Given back: 94.9

Asked: Next molecule up: Cc1ccsc1-c1ccc2c(c1)COC2(CCCN(C)C)c1ccc(F)cc1 (stereo not given)
Given back: 21

Asked: Next molecule up: Cn1cc(-c2csc(-c3cn(CCCN4CCCCC4)c4ccc(F)cc34)n2)c2cccnc21
Given back: 85.2

Asked: Next molecule up: COc1c(N)c2c(c([N+](=O)[O-])c1OC)C(=O)OC2
Given back: 110

Asked: Next molecule up: CC1(C)[C@@H](O)CC[C@]2(C)[C@H]3CC[C@@H]4[C@H]5[C@H](C(=O)/C=C/c6ccc(C(F)(F)F)cc6)CC[C@]5(CO)CC[C@@]4(C)[C@]3(C)CC[C@@H]12
Given back: 53.6

Asked: Next molecule up: COC(=O)[C@]12CC[C@@H](C)[C@H](C)[C@@H]1C1=CC(=O)[C@@H]3[C@@]4(C)C[C@@H](OC(C)=O)[C@H](OC(C)=O)[C@@](C)(COC(C)=O)[C@@H]4C(=O)C[C@@]3(C)[C@]1(C)CC2
Given back: 40.7

Asked: Next molecule up: N#CCCCCCn1c2ccccc2c2c3[nH]c(=O)[nH]c(=O)c3c3c4ccccc4n(CCCCCC#N)c3c21
Given back: 28.9

Asked: Next molecule up: COC(=O)[C@]12CC[C@@H](C)[C@H](C)[C@@H]1C1=CC[C@@H]3[C@@]4(C)C=C(O)C(=O)C(C)=C4CC[C@@]3(C)[C@]1(C)CC2
Given back: 43.4

Asked: Next molecule up: CC1(C)NC2=C(C(Nc3cccnc3)N1)C(c1ccc([N+](=O)[O-])cc1)C(C(=O)c1ccc(N=[N+]=[N-])cc1)O2 (stereo not given)
Given back: 101

Asked: Next molecule up: CCCCn1c(-c2ccc(O)cc2)cn2c3c(=O)[nH]c(=O)n(C)c3nc12
Given back: 66.7

Asked: Next molecule up: Cc1cc2nc3c4cc(Cl)ccc4n(CCN(C)C)c3nc2cc1C
Given back: 12.3

Asked: Next molecule up: COc1cc2nc(Cl)nc(Nc3cccc(C(=O)/C=C/c4ccc(Br)cc4)c3)c2cc1OC
Given back: 80

Asked: Next molecule up: CC(=O)c1c(C)[nH]c(-c2nc3ccc(N4CCN(C)CC4)cc3[nH]2)c1-c1ccc(N(C)C)cc1
Given back: 51

Asked: Next molecule up: CN(C)CCCCC(C(=O)CBr)(c1ccccc1)c1ccccc1
Given back: 41.5

Asked: Next molecule up: CC/C(=N/NC(N)=O)c1ccccc1
Given back: 102

Asked: Next molecule up: CC(=O)O[C@@H]1CCN2C(=O)N(C)c3ccccc3[C@@H]2C1
Given back: 102

Asked: Next molecule up: CCN(CC)CCCCCNc1cc(OC(=O)c2ccccc2)cc2cccnc12
Given back: 98.2
